src = patent US20100099561A1

- System: pigweed (Amaranthus retroflexus)
- Experimental details: Test A postemergence, pigweed
- Format: in vivo
- Experimental context: 500 g ai/ha, 0 to 100 scale (0 no effect, 100 complete control)
Rule: Plant response rating, Pigweed below 10 gives Met, anything at or above gives Not met.

These recorded examples may help you get a feel for the data.
Ask | I wonder whether `Cc1cc2nc(C(F)(F)F)c(CS(=O)(=O)C3=NOC(C)(C)C3)c(=O)n2o1` has Plant response rating, Pigweed below 10. Can you tell?
Reply | Met

Ask | I wonder whether `CC1(C)CC(S(=O)(=O)Cc2c(C(F)(F)C(F)(F)F)nc3n(c2=O)CCC3)=NO1` has Plant response rating, Pigweed below 10. Can you tell?
Reply | Not met

Ask | I wonder whether CC1(C)CC([S+]([O-])Cc2c(C(F)(F)F)nc3n(c2=O)CCC3)=NO1 (centres unmarked) has Plant response rating, Pigweed below 10. Can you tell?
Reply | Not met

Ask | I wonder whether `CC1(C)CC(S(=O)(=O)Cc2c(C(F)(F)F)nc3n(c2=O)CCCO3)=NO1` has Plant response rating, Pigweed below 10. Can you tell?
Reply | Not met

Further cases:
Ask | I wonder whether `CCn1c(=O)c(CS(=O)(=O)C2=NOC(C)(C)C2)nc2ccccc21` has Plant response rating, Pigweed below 10. Can you tell?
Reply | Met

----------
- Tested on: large crabgrass (Digitaria sanguinalis)
- Experimental details: Test A preemergence, large crabgrass
- Format: in vivo
- Experimental context: 125 g ai/ha, 0 to 100 scale (0 no effect, 100 complete control)
Exercise: state measured Plant response rating, Crabgrass, Large for each of the compounds provided.
Give bare numbers.

Batch lookup, Plant response rating, Crabgrass, Large per entry.
1. CC1(C)CC(S(=O)(=O)Cc2c(C(F)(F)F)nc3n(c2=O)CCS3)=NO1 [Compound 6]
2. CCn1c(=O)c(CS(=O)(=O)C2=NOC(C)(C)C2)nc2ccccc21 [Compound 28]
3. CC1(C)CC(S(=O)(=O)Cc2c(C(F)(F)F)nc3cnccn3c2=O)=NO1 [Compound 52]

Reply |
80
40
20

Ask | Consider the compound shown here: CC1(C)CC(S(=O)(=O)Cc2c(C(F)(F)F)nc3ccccn3c2=O)=NO1 [Compound 7] What is its recorded Plant response rating, Crabgrass, Large?
Reply | 60

----------
Exercise: state measured Plant response rating, Velvetleaf for each of the molecules provided.
- System: velvetleaf (Abutilon theophrasti)
- Experimental details: Test A preemergence, velvetleaf
- Type: in vivo
- Experimental context: 125 g ai/ha, 0 to 100 scale (0 no effect, 100 complete control)
Answers are plain numbers.

Consider the following illustrative entries.
Ask | Consider the molecule shown here: CC1(C)CC([S+]([O-])Cc2c(C(F)(F)F)nc3n(c2=O)CCCO3)=NO1 (centres unmarked) What is its recorded Plant response rating, Velvetleaf?
Reply | 0

Ask | Consider the molecule shown here: CC1(C)CC([S+]([O-])Cc2c(C(F)(F)Cl)nc3n(c2=O)CCC3)=NO1 (centres unmarked) What is its recorded Plant response rating, Velvetleaf?
Reply | 0

Ask | Consider the molecule shown here: Cn1c(=O)c(C[S+]([O-])C2=NOC(C)(C)C2)nc2ccccc21 (centres unmarked) What is its recorded Plant response rating, Velvetleaf?
Reply | 0

Ask | Consider the molecule shown here: Cc1cc2nc(C(F)(F)F)c(C[S+]([O-])C3=NOC(C)(C)C3)c(=O)n2o1 (centres unmarked) What is its recorded Plant response rating, Velvetleaf?
Reply | 0

Ask | Consider the molecule shown here: CC1(C)CC([S+]([O-])Cc2c(C(F)(F)C(F)(F)F)nc3n(c2=O)CCC3)=NO1 (centres unmarked) What is its recorded Plant response rating, Velvetleaf?
Reply | 0

Batch lookup, Plant response rating, Velvetleaf per entry.
1. CC1(C)CC(S(=O)(=O)Cc2c(C(F)(F)F)nc3n(c2=O)CCS3)=NO1
2. Cc1cc2nc(C(F)(F)F)c(CS(=O)(=O)C3=NOC(C)(C)C3)c(=O)n2o1

Reply |
1: 0; 2: 0

----------
- Tested on: morningglory (Ipomoea spp.)
- Experimental details: Test A preemergence, morningglory
- Assay type: in vivo
- Experimental context: 500 g ai/ha, 0 to 100 scale (0 no effect, 100 complete control)
Endpoint name: Plant response rating, Morningglory
Answers are plain numbers.

Consider the following illustrative entries.
Ask | Consider the molecule shown here: `CCn1c(=O)c(CS(=O)(=O)C2=NOC(C)(C)C2)nc2ccccc21` What is its recorded Plant response rating, Morningglory?
Reply | 0

Ask | Consider the molecule shown here: CCn1c(=O)c(C[S+]([O-])C2=NOC(C)(C)C2)nc2ccccc21 (centres unmarked) What is its recorded Plant response rating, Morningglory?
Reply | 0

Ask | Consider the molecule shown here: Cc1con2c(=O)c(C[S+]([O-])C3=NOC(C)(C)C3)c(C(F)(F)F)nc12 (centres unmarked) What is its recorded Plant response rating, Morningglory?
Reply | 0

Batch lookup, Plant response rating, Morningglory per entry.
1. CC1(C)CC([S+]([O-])Cc2c(C(F)(F)C(F)(F)F)nc3n(c2=O)CCCC3)=NO1 (centres unmarked)
2. CC1(C)CC(S(=O)(=O)Cc2c(C(F)(F)F)nc3n(c2=O)CCCCC3)=NO1
3. CC1(C)CC(S(=O)(=O)Cc2c(C(F)(F)F)nc3ccsn3c2=O)=NO1

Reply |
60
50
80

Batch lookup, Plant response rating, Morningglory per entry.
1. CC1(C)CC([S+]([O-])Cc2c(C(F)(F)F)nc3n(c2=O)CCCCC3)=NO1 (centres unmarked)
2. CC1(C)CC(S(=O)(=O)Cc2c(C(F)(F)F)nc3n(c2=O)CCC3)=NO1

Reply |
[0, 90]

----------
Exercise: state measured Plant response rating, Crabgrass, Large for each of the compounds provided.
- Test system: large crabgrass (Digitaria sanguinalis)
- Experimental details: Test A preemergence, large crabgrass
- Type: in vivo
- Experimental context: 500 g ai/ha, 0 to 100 scale (0 no effect, 100 complete control)
Answers are plain numbers.

Batch lookup, Plant response rating, Crabgrass, Large per entry.
1. CC1(C)CC([S+]([O-])Cc2c(C(F)(F)C(F)(F)F)nc3n(c2=O)CCS3)=NO1 (stereo not drawn)
2. CC1(C)CC([S+]([O-])Cc2c(C(F)(F)C(F)(F)F)nc3n(c2=O)CCCS3)=NO1 (stereo not drawn)
3. CC1(C)CC(S(=O)(=O)Cc2c(C(F)(F)C(F)(F)F)nc3n(c2=O)CCCC3)=NO1
4. CCn1c(=O)c(C[S+]([O-])C2=NOC(C)(C)C2)nc2cccnc21 (stereo not drawn)
5. CCn1c(=O)c(CS(=O)(=O)C2=NOC(C)(C)C2)nc2ccccc21
6. CC1(C)CC([S+]([O-])Cc2c(C(F)(F)F)nc3cccnn3c2=O)=NO1 (stereo not drawn)

Reply |
[80, 70, 100, 0, 50, 0]

Batch lookup, Plant response rating, Crabgrass, Large per entry.
1. CC1(C)CC(S(=O)(=O)Cc2c(C(F)(F)F)nc3ccsn3c2=O)=NO1
2. CC1(C)CC(S(=O)(=O)Cc2c(C(F)(F)F)nc3n(c2=O)CCCC3)=NO1
3. CC1(C)CC([S+]([O-])Cc2c(C(F)(F)C(F)(F)F)nc3n(c2=O)CCCC3)=NO1 (stereo not drawn)
4. Cc1cc2nc(C(F)(F)F)c(CS(=O)(=O)C3=NOC(C)(C)C3)c(=O)n2o1
5. CC1(C)CC(S(=O)(=O)Cc2c(C(F)(F)C(F)(F)F)nc3n(c2=O)CCC3)=NO1

Reply |
[90, 100, 80, 90, 100]

Batch lookup, Plant response rating, Crabgrass, Large per entry.
1. Cn1c(=O)c(C[S+]([O-])C2=NOC(C)(C)C2)nc2ccccc21 (stereo not drawn)
2. CC1(C)CC([S+]([O-])Cc2c(C(F)(F)Cl)nc3n(c2=O)CCCS3)=NO1 (stereo not drawn)
3. CC1(C)CC([S+]([O-])Cc2c(C(F)(F)F)nc3n(c2=O)CCS3)=NO1 (stereo not drawn)
4. Cc1cc2nc(C(F)(F)F)c(C[S+]([O-])C3=NOC(C)(C)C3)c(=O)n2o1 (stereo not drawn)
5. CC1(C)CC([S+]([O-])Cc2c(C(F)(F)F)nc3n(c2=O)CCCCC3)=NO1 (stereo not drawn)
6. Cc1con2c(=O)c(CS(=O)(=O)C3=NOC(C)(C)C3)c(C(F)(F)F)nc12
7. CC1(C)CC(S(=O)(=O)Cc2c(C(F)(F)C(F)(F)F)nc3n(c2=O)CCCO3)=NO1
8. CC1(C)CC(S(=O)(=O)Cc2c(C(F)(F)F)nc3cnccn3c2=O)=NO1

Reply |
1. 0
2. 50
3. 80
4. 70
5. 80
6. 90
7. 90
8. 80

Batch lookup, Plant response rating, Crabgrass, Large per entry.
1. CC1(C)CC([S+]([O-])Cc2c(C(F)(F)F)nc3cnccn3c2=O)=NO1 (stereo not drawn)
2. CC1(C)CC([S+]([O-])Cc2c(C(F)(F)F)nc3n(c2=O)CCCO3)=NO1 (stereo not drawn)
3. CC1(C)CC([S+]([O-])Cc2c(C(F)(F)Cl)nc3n(c2=O)CCCC3)=NO1 (stereo not drawn)
4. CC1(C)CC([S+]([O-])Cc2c(C(F)(F)F)nc3ccon3c2=O)=NO1 (stereo not drawn)

Reply |
1: 0; 2: 70; 3: 80; 4: 60

Batch lookup, Plant response rating, Crabgrass, Large per entry.
1. CC1(C)CC(S(=O)(=O)Cc2c(C(F)(F)F)nc3ccccn3c2=O)=NO1
2. CC1(C)CC(S(=O)(=O)Cc2c(C(F)(F)F)nc3n(c2=O)CCCCC3)=NO1
3. CC1(C)CC(S(=O)(=O)Cc2c(C(F)(F)F)nc3n(c2=O)CCS3)=NO1

Reply |
1: 80; 2: 100; 3: 100

Batch lookup, Plant response rating, Crabgrass, Large per entry.
1. CC1(C)CC(S(=O)(=O)Cc2c(C(F)(F)F)nc3n(c2=O)CCO3)=NO1
2. CCn1c(=O)c(CS(=O)(=O)C2=NOC(C)(C)C2)nc2cccnc21
3. CC1(C)CC(S(=O)(=O)Cc2c(C(F)(F)F)nc3n(c2=O)CCC3)=NO1

Reply |
1: 100; 2: 50; 3: 90

Batch lookup, Plant response rating, Crabgrass, Large per entry.
1. CC1(C)CC(S(=O)(=O)Cc2c(C(F)(F)F)nc3ccon3c2=O)=NO1
2. CC1(C)CC(S(=O)(=O)Cc2c(C(F)(F)Cl)nc3n(c2=O)CCC3)=NO1
3. CC1(C)CC(S(=O)(=O)Cc2c(C(F)(F)F)nc3n(c2=O)CCCO3)=NO1
4. CC1(C)CC([S+]([O-])Cc2c(C(F)(F)C(F)(F)F)nc3n(c2=O)CCC3)=NO1 (stereo not drawn)

Reply |
[80, 100, 100, 90]
